# subject.of.test: D(4) dopamine receptor (Homo sapiens)
# test.summary: dopamine D4 receptor antagonists (AID 743371)
# condition.details: D4 receptor antagonist assay; at 10 µM
Active and inactive are the calls of the source. The rule behind the calls is not given here.
Assign a class; possible classes are true (active), false (inactive)

Prompt line: What is the recorded call for this compound in the test? COc1ccc(C(=O)N2CCOC(CCc3ccccc3)C2)cc1 (configuration not stated)
Response line: false

Prompt line: What is the recorded call for this compound in the test? O=C(Nc1ccccc1)N1CCOC(CCc2ccccc2)C1 (configuration not stated)
Response line: false

Prompt line: What is the recorded call for this compound in the test? COc1ccc(CN2CCO[C@@H](CCc3ccccc3)C2)cc1
Response line: false

Prompt line: What is the recorded call for this compound in the test? O=C(Nc1ccccc1F)N1CCOC(CCc2ccccc2)C1 (configuration not stated)
Response line: false

Prompt line: What is the recorded call for this compound in the test? O=C(c1cc(F)c(F)c(F)c1)N1CCOC(CCc2ccccc2)C1 (configuration not stated)
Response line: false

Prompt line: What is the recorded call for this compound in the test? Cc1ccc(C(=O)N2CCOC(CCc3ccccc3)C2)cc1 (configuration not stated)
Response line: false

Prompt line: What is the recorded call for this compound in the test? O=S(=O)(c1ccc2ccccc2c1)N1CCOC(CCc2ccccc2)C1 (configuration not stated)
Response line: false

Prompt line: What is the recorded call for this compound in the test? Fc1cccc(F)c1CN1CCOC(CCc2ccccc2)C1 (configuration not stated)
Response line: true

Prompt line: What is the recorded call for this compound in the test? O=C(c1ccc(Cl)cc1)N1CCOC(CCc2ccccc2)C1 (configuration not stated)
Response line: false

Prompt line: What is the recorded call for this compound in the test? Cc1cccc(S(=O)(=O)N2CCOC(CCc3ccccc3)C2)c1 (configuration not stated)
Response line: false

Prompt line: What is the recorded call for this compound in the test? O=C(c1ccc2ccccc2n1)N1CCOC(CCc2ccccc2)C1 (configuration not stated)
Response line: false

Prompt line: What is the recorded call for this compound in the test? COc1ccc(CN2CCO[C@H](CCc3ccccc3)C2)cc1
Response line: true

###

# subject.of.test: D(4) dopamine receptor (Homo sapiens) (UniProt P21917)
# test.summary: dopamine D4 receptor antagonists (AID 743371)
# condition.details: D4 receptor antagonist assay; at 10 µM; stronger effect = higher value
result.type: inhibition (%)
Output spec: scalar in %, unitless text.

Prompt line: For the molecule CC(C)(C)c1ccc(S(=O)(=O)N2CCOC(CCc3ccccc3)C2)cc1 (stereo unspecified) , give its reported inhibition.
Response line: 5

Prompt line: For the molecule O=C(Nc1ccc(Cl)cc1)N1CCOC(CCc2ccccc2)C1 (stereo unspecified) , give its reported inhibition.
Response line: 16

Prompt line: For the molecule O=C(c1cccc(F)c1)N1CCOC(CCc2ccccc2)C1 (stereo unspecified) , give its reported inhibition.
Response line: 1

Prompt line: For the molecule O=C(c1ccccc1)N1CCOC(CCc2ccccc2)C1 (stereo unspecified) , give its reported inhibition.
Response line: 5

Prompt line: For the molecule O=C(Nc1ccccc1Cl)N1CCOC(CCc2ccccc2)C1 (stereo unspecified) , give its reported inhibition.
Response line: 2

Prompt line: For the molecule c1ccc(CCC2CN(Cc3ccncc3)CCO2)cc1 (stereo unspecified) , give its reported inhibition.
Response line: 13

Measured values drawn from PubChem BioAssay AID743371 for this set.
